tgt: UniProtKB P80457
pIC50: −log10 of the molar value. Structures can show the parent of a compound that is named as a salt.
measure: pIC50

1. N#Cc1cc(-c2cc(C(=O)O)ccn2)ccc1OCc1ccccc1 [Example 9] ... 8.59
2. CC(C)COc1ccc(-c2nccc(C(=O)O)c2F)cc1C#N [Example 75] ... 8.49
3. CCCCN(C)c1ccc(-c2cc(C(=O)O)ccn2)cc1C#N [Example 57] ... 8.51
4. N#Cc1cc(-c2cc(C(=O)O)ccn2)ccc1OCCOc1cc(F)cc2c1OCCC2 [Example 33] ... 8.14
5. COC1(C2CCCCC2)CCN(c2ccc(-c3cc(C(=O)O)ccn3)cc2C#N)CC1 [Example 67] ... 8.66
6. CC(C)=CCOc1ccc(-c2cc(C(=O)O)ccn2)cc1C#N [Example 72] ... 8.51
7. N#Cc1cc(-c2cc(C(=O)O)ccn2)ccc1N1CC=CCC1 [Example 49] ... 8.55
8. N#Cc1cc(-c2cc(C(=O)O)ccn2)ccc1N1CCCCCC1 [Example 4, monohydrochloride] ... 8.92
9. CC(C)COc1ccc(-c2cc(C(=O)O)c(Cl)cn2)cc1C#N [Example 77] ... 8.40

====

tgt: xanthine oxidase (derived from butter milk) (Bos taurus, UniProt P80457)
Sequence (P80457 whole entry): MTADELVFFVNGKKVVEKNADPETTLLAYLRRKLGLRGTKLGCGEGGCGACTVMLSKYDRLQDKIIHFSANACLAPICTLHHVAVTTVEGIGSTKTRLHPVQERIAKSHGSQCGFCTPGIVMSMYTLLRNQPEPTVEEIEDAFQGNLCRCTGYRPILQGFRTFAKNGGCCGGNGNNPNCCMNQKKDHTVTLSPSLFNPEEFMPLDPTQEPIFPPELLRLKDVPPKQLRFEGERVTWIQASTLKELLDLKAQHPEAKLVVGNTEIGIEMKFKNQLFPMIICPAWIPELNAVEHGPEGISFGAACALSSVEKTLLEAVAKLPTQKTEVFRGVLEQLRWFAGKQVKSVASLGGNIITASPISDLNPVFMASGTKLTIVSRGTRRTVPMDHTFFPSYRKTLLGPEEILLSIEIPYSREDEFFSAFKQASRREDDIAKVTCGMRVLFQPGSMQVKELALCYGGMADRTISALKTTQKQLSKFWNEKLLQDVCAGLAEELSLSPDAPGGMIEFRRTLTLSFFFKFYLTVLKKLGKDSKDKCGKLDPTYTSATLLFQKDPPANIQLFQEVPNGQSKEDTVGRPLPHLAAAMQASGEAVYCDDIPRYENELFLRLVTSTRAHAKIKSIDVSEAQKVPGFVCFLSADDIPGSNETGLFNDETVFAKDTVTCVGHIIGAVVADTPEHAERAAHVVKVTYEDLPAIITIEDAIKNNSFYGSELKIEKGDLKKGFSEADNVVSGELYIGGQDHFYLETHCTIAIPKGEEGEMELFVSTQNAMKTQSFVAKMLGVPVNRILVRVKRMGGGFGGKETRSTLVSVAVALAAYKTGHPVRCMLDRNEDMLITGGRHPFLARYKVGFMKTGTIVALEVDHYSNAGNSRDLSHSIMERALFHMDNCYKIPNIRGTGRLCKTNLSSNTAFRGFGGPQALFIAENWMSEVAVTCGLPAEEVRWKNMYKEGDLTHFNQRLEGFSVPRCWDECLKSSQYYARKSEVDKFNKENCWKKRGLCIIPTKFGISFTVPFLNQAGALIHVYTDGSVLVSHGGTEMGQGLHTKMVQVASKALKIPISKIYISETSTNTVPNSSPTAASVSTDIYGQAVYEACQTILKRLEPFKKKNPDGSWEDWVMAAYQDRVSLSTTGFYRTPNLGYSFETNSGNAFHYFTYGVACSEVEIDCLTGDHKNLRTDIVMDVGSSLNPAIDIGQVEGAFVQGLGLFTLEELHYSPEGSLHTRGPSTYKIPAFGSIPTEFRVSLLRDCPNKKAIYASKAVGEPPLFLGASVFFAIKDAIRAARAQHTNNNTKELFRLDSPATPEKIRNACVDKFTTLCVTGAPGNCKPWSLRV
Each record here notes measured IC50.
measure: IC50 (nM)

1) CC(C)COc1ccc(-c2cc(C(=O)O)ccn2)cc1C#N ... 3.6
2) N#Cc1cc(-c2cc(C(=O)O)ccn2)ccc1OCC(F)(F)F ... 10
3) N#Cc1cc(-c2cc(C(=O)O)ccn2)ccc1NC1CCCCCC1 ... 1.1
